Tested on: HepG2
Procedure details: Hypolipidemic activity in human HepG2 cells assessed as inhibition of oleic acid-induced lipid accumulation at 10 uM
Format: functional, cell-based
Calls of active or inactive are those of the source. The rule behind the calls is not given here.
Your reply should match one of these outcome classes. active, inactive

# count of solved cases: 3
// param item: CC(=O)O[C@@H](c1ccccc1)c1cc(=O)c(C(N)=O)cn1CCN1CCCCC1 ; yields the recorded call
active

// param item: COc1ccc(Cn2cc(C(N)=O)c(=O)cc2[C@@H](OC(C)=O)c2ccccc2)cc1 ; yields the recorded call
inactive

// param item: CC(=O)O[C@@H](c1ccccc1)c1cc(OCCN2CCCC2)c(C(N)=O)cn1 ; yields the recorded call
active

Now, please, on to the next molecule.
// param item: COCCOc1cc([C@@H](OC(C)=O)c2ccccc2)ncc1C(N)=O ; yields the recorded call
inactive

----------
Tested on: HepG2
Procedure details: Hypolipidemic activity in human HepG2 cells assessed as inhibition of oleic acid-induced lipid accumulation at 10 uM
Assay type: functional, cell-based
Calls of active or inactive are those of the source. No cut-off for these calls is given here.
Your reply should match one of these outcome classes. Yes = active, No = inactive

// param item: CC(C)CC(=O)O[C@@H](c1ccccc1)c1cc(OCCO)c(C(N)=O)cn1 ; yields the recorded call
No

Continuing:
// param item: CC(=O)O[C@@H](c1ccccc1)c1cc(=O)c(C(N)=O)cn1Cc1cc(C(F)(F)F)cc(C(F)(F)F)c1 ; yields the recorded call
No

// param item: NC(=O)c1cnc(Cc2ccccc2)cc1OCCO ; yields the recorded call
Yes

Provenance of the data: ChEMBL document CHEMBL4819129
